# assay.method.text: protein stability index of a GFP-peptide fusion (GPS, HEK-293T) (PSI 1-6); higher = more stable;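 further: 24-mer peptide tiles fused after GFP, lentivirally expressed, FACS-sorted into six equal bins by GFP/DsRed ratio, decoded by Illumina sequencing, PSI is the read-weighted mean bin number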
# settings: treatment: DMSO; c terminus: a fixed tail appended
attribute.measured: protein stability index
// return just the number, without any unit appended

Some solved entries appear below for comparison.
LNVELDPEIQKVRAQEREQIKALN [KRT71]
4.74
PGSGSGPGPGSGPGSGPGHGSGSH [SPAG8]
5
SRSLLTGGYNLASVSVWDLAAPSL [TLE6]
2.38
VHPTKHEVHFLHEESILERVQQHI [MLH1]
3.18

So, AAALDYEADGSTNNGIFQINSRRW [SPACA3] ? Its protein stability index was 3.64
